- System: U2OS
- RUN DESCRIPTION: Multiplex assay against U2OS
- Assay type: toxicity, cell-based
- CONDITION SUMMARY: human, 48 h, 1 µM, compound concentration 1 uM, replicate 2
READOUT TYPE: Population Hoechst High Intensity Objects (%)
Please format your answer as a value with the unit trailing.

Some entries whose results are on file:
>>> value("CN1CCC[C@@H]1CCO[C@](C)(c1ccccc1)c1ccc(Cl)cc1.O=C(O)/C=C/C(=O)O [CLEMASTINE FUMARATE]")
"1%"
>>> value("CN1CCN(c2ccc(OC(F)(F)F)c(Nc3ncc4c(n3)-c3c(c(C(N)=O)nn3CCO)CC4)c2)CC1 [ONVANSERTIB]")
"6%"
>>> value("Cl.N#Cc1ccc2[nH]cc(CCCCN3CCN(c4ccc5oc(C(N)=O)cc5c4)CC3)c2c1 [VILAZODONE HYDROCHLORIDE]")
"2%"

Now look at this one.
# Population Hoechst High Intensity Objects (%) of COc1cccc([C@@H](C)NCCCc2ccccc2Cl)c1.Cl [TECALCET HYDROCHLORIDE] = 7%

====

- Test system: HEK-293T
- RUN DESCRIPTION: Incucyte cell viability with HEK293T; further: filed as whole numbers so only -1 and 0 and 1 occur
- Assay type: toxicity, cell-based
- CONDITION SUMMARY: human, 24 h, 10 µM, compound concentration 10 uM, replicate number 1, timepoint 24 hours
READOUT TYPE: Growth Rate
Answers are plain numbers.

Look at each compound and report its Growth Rate.
1. N#Cc1c(O)nc(SCc2cccc(F)c2F)nc1C1CC1
2. CC1(C)CCC(C)(C)c2cc(C3(c4ccc(C(=O)O)cc4)OCCO3)ccc21
3. C=CC(=O)Nc1ccc2ncnc(Nc3ccc(OCc4cccc(F)c4)c(Cl)c3)c2c1.Cc1ccc(S(=O)(=O)O)cc1
4. O=C(O)c1ccc(-c2coc3ncc(-c4ccccc4)cc23)cc1Cl
5. O=C(O)[C@@H]1[C@@H](Cn2nnc3ccccc3c2=O)CC[C@H]1C(=O)c1ccc(OCCC2CCOCC2)cc1

1. 1
2. 1
3. 0
4. 0
5. 1

====

Assign Growth Rate to each entry below.
- System: HEK-293T
- RUN DESCRIPTION: Incucyte cell viability with HEK293T; further: filed as whole numbers so only -1 and 0 and 1 occur
- Type: toxicity, cell-based
- CONDITION SUMMARY: human, 24 h, 10 µM, compound concentration 10 uM, replicate number 1, timepoint 24 hours
Answers are plain numbers.

>>> value("O=C(NCCCN1CCOC1=O)c1cnc(NCc2cc(Br)ccc2Br)nc1NC1CCCC1")
1

Look at each molecule and report its Growth Rate.
1. Cc1cccc([C@H](C)c2c[nH]cn2)c1C.Cl [DEXMEDETOMIDINE HYDROCHLORIDE]
2. CN([C@@H]1CCc2c(CC(=O)O)c3ccccc3n2C1)S(=O)(=O)c1ccc(F)cc1
3. CCn1cc(-c2cccc(C(F)(F)F)c2)c2sc(C(=N)NC3CCS(=O)(=O)CC3)cc2c1=O
4. CN1CCC[C@@H]1CCO[C@](C)(c1ccccc1)c1ccc(Cl)cc1.O=C(O)/C=C/C(=O)O [CLEMASTINE FUMARATE]
5. Cc1cc(Nc2nccc(C)n2)cc(-c2cnc([C@@]3(O)CC[C@H](C(=O)O)C(C)(C)C3)s2)c1
6. COc1cc(-c2cn([C@H]3CCc4c(F)cccc4N(CC(F)(F)F)C3=O)nn2)ccc1-n1cnc(C)c1
7. Cn1c(-c2csc(C3CCN(CC4=NC5N=CC=CC5N4)CC3)n2)nc2ccccc21 (stereo not drawn)

[0, 0, 0, 0, 0, 1, 0]

====

- Test system: HEK-293T
- RUN DESCRIPTION: Multiplex assay against HEK293T
- Format: toxicity, cell-based
- CONDITION SUMMARY: human, 12 h, 1 µM, compound concentration 1 uM, replicate 2
READOUT TYPE: Population Healthy Nuclei (%)
Numbers only, in %.

Here's what some known entries look like.
>>> value("C=CC(=O)Nc1cc2c(Nc3ccc(F)c(Cl)c3)ncnc2cc1OCCCN1CCOCC1.Cl.Cl [CANERTINIB DIHYDROCHLORIDE]")
80
>>> value("CCN(CC)CCCCNc1ncc2cc(-c3cc(OC)cc(OC)c3)c(NC(=O)NC(C)(C)C)nc2n1")
1

The compound CN1CCN(c2ccc(OC(F)(F)F)c(Nc3ncc4c(n3)-c3c(c(C(N)=O)nn3CCO)CC4)c2)CC1 on HEK-293T: Population Healthy Nuclei (%) was 23

====

- System: HEK-293T
- RUN DESCRIPTION: Multiplex assay against HEK293T
- Assay type: toxicity, cell-based
- CONDITION SUMMARY: human, 48 h, 10 µM, compound concentration 10 uM, replicate 1
Mark Condition met only for Population Fragmented Nuclei (%) values smaller than 30%; exact matches and larger values are Condition not met.

>>> class_label("COc1cc(-n2cnc3cc(-c4ccc(Cl)cc4)sc3c2=O)ccc1OCCN1CCCC1")
"Condition not met"
>>> class_label("Cc1[nH]c(/C=C2\\C(=O)Nc3ccc(S(=O)(=O)N(C)c4cccc(Cl)c4)cc32)c(C)c1C(=O)N1CCN(C)CC1")
"Condition met"
>>> class_label("OC1(c2ccc(Cl)cc2)CCN(Cc2c[nH]c3ccccc23)CC1")
"Condition met"
>>> class_label("COc1cccc([C@@H](C)NCCCc2ccccc2Cl)c1.Cl [TECALCET HYDROCHLORIDE]")
"Condition met"
>>> class_label("CN1CCN(CCOc2cc(OC3CCOCC3)c3c(Nc4c(Cl)ccc5c4OCO5)ncnc3c2)CC1 [SARACATINIB]")
"Condition met"
>>> class_label("CN(C)C(=O)/C(C#N)=C/c1ccc(-c2nc3cnc4[nH]ccc4c3n2C2CCCCC2)o1")
"Condition met"
>>> class_label("COc1ncc(-c2ccc3nccc(-c4ccnnc4)c3c2)cc1NS(=O)(=O)c1ccc(F)cc1F [OMIPALISIB]")
"Condition met"

Consider the record given below.
Is Population Fragmented Nuclei (%) of CNCc1ccccc1-c1csc([C@H](C)Nc2nc(C)nc3cc(OC)c(OC)cc23)c1 [BAY-294] strictly below 30%? Condition not met

====

- System: Fibroblast
- RUN DESCRIPTION: Multiplex assay against human fibroblast
- Format: toxicity, cell-based
- CONDITION SUMMARY: 48 h, 1 µM, compound concentration 1 uM, replicate 1
READOUT TYPE: Population Mitochondria Different-Phenotype (%)
One number for each entry, in %.

>>> value("Cc1[nH]c(/C=C2\\C(=O)Nc3ccc(S(=O)(=O)N(C)c4cccc(Cl)c4)cc32)c(C)c1C(=O)N1CCN(C)CC1")
13
>>> value("CC(C)(O)CNc1ncc(-c2ccnc(Nc3ccnc(Cl)c3)n2)c(CC2CC2)n1")
3
>>> value("COc1ncc(-c2ccc3nccc(-c4ccnnc4)c3c2)cc1NS(=O)(=O)c1ccc(F)cc1F [OMIPALISIB]")
12

--- query ---
Lab book: Population Mitochondria Different-Phenotype (%) of CN1CCCC(n2nc(Cc3ccc(Cl)cc3)c3ccccc3c2=O)CC1.Cl (centres undefined) [AZELASTINE HYDROCHLORIDE] noted as 11

====

- Test system: HEK-293T
- RUN DESCRIPTION: Multiplex assay against HEK293T
- Format: toxicity, cell-based
- CONDITION SUMMARY: human, 24 h, 10 µM, compound concentration 10 uM, replicate 1
Please go through the items and note down their Population Hoechst High Intensity Objects (%).
Numbers only, in %.

Below, 10 compounds whose answers are already recorded.
>>> value("CN1CCN(c2ccc(OC(F)(F)F)c(Nc3ncc4c(n3)-c3c(c(C(N)=O)nn3CCO)CC4)c2)CC1")
15
>>> value("CN1CCN(CCOc2cc(OC3CCOCC3)c3c(Nc4c(Cl)ccc5c4OCO5)ncnc3c2)CC1")
23
>>> value("C=CC(=O)Nc1cccc(C(=O)Nc2ccc(Nc3cc(-c4[nH]c(SC)nc4C)ccn3)cc2)c1")
18
>>> value("CC[C@H](C)C(=O)O[C@H]1C[C@@H](C)C=C2C=C[C@H](C)[C@H](CC[C@@H]3C[C@@H](O)CC(=O)O3)[C@H]21")
17
>>> value("COc1cccc([C@@H](C)NCCCc2ccccc2Cl)c1.Cl [TECALCET HYDROCHLORIDE]")
9
>>> value("CN(C)C(=O)/C(C#N)=C/c1ccc(-c2nc3cnc4[nH]ccc4c3n2C2CCCCC2)o1")
41
>>> value("CNc1nc(NCc2ccc(NS(C)(=O)=O)cc2Cl)cc(-c2ccccn2)n1")
14
>>> value("Cc1nc(Nc2n[nH]c3c2CN(C(=O)N[C@H](CN(C)C)c2ccccc2)C3(C)C)c2sccc2n1")
14
>>> value("COc1cc(-n2cnc3cc(-c4ccc(Cl)cc4)sc3c2=O)ccc1OCCN1CCCC1")
30
>>> value("CCN(CC)CCCCNc1ncc2cc(-c3cc(OC)cc(OC)c3)c(NC(=O)NC(C)(C)C)nc2n1")
36

Fill in Population Hoechst High Intensity Objects (%) for each of the 3 compounds listed.
1. COc1ncc(-c2ccc3nccc(-c4ccnnc4)c3c2)cc1NS(=O)(=O)c1ccc(F)cc1F
2. Cc1[nH]c(/C=C2\C(=O)Nc3ccc(S(=O)(=O)N(C)c4cccc(Cl)c4)cc32)c(C)c1C(=O)N1CCN(C)CC1
3. C=CC(=O)Nc1cc2c(Nc3ccc(F)c(Cl)c3)ncnc2cc1OCCCN1CCOCC1.Cl.Cl [CANERTINIB DIHYDROCHLORIDE]

[24, 12, 9]

Provide each entry's Population Hoechst High Intensity Objects (%) from the list below.
1. C[C@@H](NCCCc1cccc(C(F)(F)F)c1)c1cccc2ccccc12.Cl [CINACALCET HYDROCHLORIDE]
2. Cc1c(-c2ccc(O)cc2)n(Cc2ccc(OCCN3CCCCCC3)cc2)c2ccc(O)cc12
3. O=C1NCN(c2ccccc2)C12CCN(CCCOc1ccc(F)cc1)CC2 [SPIRAMIDE]
4. Cc1csc2c(N[C@@H](C)CN3CCN(S(=O)(=O)c4ccc(Cl)c(Cl)c4)CC3)ncnc12

1. 19
2. 21
3. 17
4. 16

Below is a list of compounds. For each, state its recorded Population Hoechst High Intensity Objects (%).
1. CN(C)CC#Cc1ccc(OCCCc2sc(N3CCc4cccc(C(=O)Nc5nc6ccccc6s5)c4C3)nc2C(=O)O)c(F)c1
2. Cc1nc(-c2cn3c(n2)-c2ccc(-c4cnn(C(C)(C)C(N)=O)c4)cc2OCC3)n(C(C)C)n1
3. OC1(c2ccc(Cl)cc2)CCN(Cc2c[nH]c3ccccc23)CC1

[10, 8, 16]

Hi! Can you tell me Population Hoechst High Intensity Objects (%) for each of these compounds?
1. c1cn2cc(-c3ccc4cn[nH]c4c3)nc(Nc3ccc(N4CCOCC4)cc3)c2n1
2. COc1cc2nccc(Oc3ccc(NC(=O)Nc4cc(C)on4)c(Cl)c3)c2cc1OC.O
3. CC(C)NCC(O)COc1ccc(CCOCC2CC2)cc1.Cl (stereo not drawn) [BETAXOLOL HYDROCHLORIDE]

28
14
15

These measurements were taken from ChEMBL document CHEMBL4689842.
